Recorded values, source ChEMBL document CHEMBL1152671.

- assayName: Therapeutic index, ratio of TC50 for african green monkey (Cercopithecus aethiops) Vero cells to IC50 for chloroquine-resistant Plasmodium falciparum W2 infected in african green monkey (Cercopithecus aethiops) Vero cells
- Type: cell-based
- recordedConditions: read-out: TI
endpoint: selectivity ratio

# compoundStructureString, obsValue
measured = [
    ("O[C@]12C=C(c3nccc4c3[nH]c3ccccc34)[C@@H]3CCN(CCCC/C=C\\CC1)C[C@@]31C[C@@H]3/C=C\\CCCCN3[C@H]12", 25),
]

---

- Tested on: Plasmodium falciparum
- assayName: Antimalarial activity against chloroquine-resistant Plasmodium falciparum W2 infected in African green monkey (Cercopithecus aethiops) (Cercopithecus aethiops) Vero cells assessed as parasite LDH activity after 72 hrs
- Format: functional, organism-based
Here the recorded IC50 is given for each entry.

# compound, unitsLabel, IC50
records = [
    ("CC(=O)Nc1cccc2c1[nH]c1c(C3=C[C@@]4(O)CC/C=C\\CCCCN5CC[C@@H]3[C@]3(C[C@@H]6/C=C\\CCCCN6[C@H]34)C5)nccc12 [8-ACETAMIDOMANZAMINE A]", "nM", 231),
    ("CC(C)(C)C(=O)Nc1ccc2[nH]c3c(C4=C[C@@]5(O)CC/C=C\\CCCCN6CC[C@@H]4[C@]4(C[C@@H]7/C=C\\CCCCN7[C@H]45)C6)nccc3c2c1 [6-PIVALAMIDOANZAMINE A]", "nM", 417),
    ("CCCCC(=O)Nc1ccc2[nH]c3c(C4=C[C@@]5(O)CC/C=C\\CCCCN6CC[C@@H]4[C@]4(C[C@@H]7/C=C\\CCCCN7[C@H]45)C6)nccc3c2c1 [6-N-PENTAMIDOMANZAMINE A]", "nM", 1480),
    ("CCCC(=O)Nc1cccc2c1[nH]c1c(C3=C[C@@]4(O)CC/C=C\\CCCCN5CC[C@@H]3[C@]3(C[C@@H]6/C=C\\CCCCN6[C@H]34)C5)nccc12 [8-N-BUTAMIDOMANZAMINE A]", "nM", 121),
    ("O=C(Nc1ccc2[nH]c3c(C4=C[C@@]5(O)CC/C=C\\CCCCN6CC[C@@H]4[C@]4(C[C@@H]7/C=C\\CCCCN7[C@H]45)C6)nccc3c2c1)C1CCCCC1 [6-CYCLOHEXAMIDOMANZAMINE A]", "nM", 53),
]
